Hello, the source for this data is patent US20250163119A1, in case you need it.

Give measured clearance for each item. Keep answers brief.
Assay: Pharmacokinetics in Yucatan mini-pigs, single subcutaneous or intravenous dose
Type: in vivo
Conditions: male, Yucatan mini-pig, minipig, plasma, iv, 19 nmol/kg, single intravenous dose 19 nmol/kg, mean
*1 amine or outer side, *2 acyl side, *3 side chain or, on linkers, in order; H or OH if unused. Side-chain parts run from the residue outwards. [ ]: non-standard residue; d: D form. The star is where a group is joined. C20 diacid = O=C(O)CCCCCCCCCCCCCCCCCCC(=O)*; γGlu = O=C(O)[C@H](CCC(=O)[*:2])N[*:1]; εLys = N[C@@H](CCCCN[*:1])C(=O)[*:2]; αMeL = CC(C)C[C@](C)(N)C(=O)O; AEEA = NCCOCCOCC(=O)O; Aib = CC(C)(N)C(=O)O
Respond with the bare value in mL/day/kg.

Prompt: State its clearance for this substance: Ac-PPPIVTS[αMeL]DVPT[Aib][αMeL]LQKLLEQERAEKARQQAK([γGlu-AEEA-εLys-C20 diacid])EAAEILAQV-NH2 [SEQ ID NO: 48]
Completion: 12.5

Prompt: State its clearance for this substance: {C20 diacid-εLys-AEEA-γGlu}-GSPSIVTS[αMeL]DVPT[Aib][αMeL]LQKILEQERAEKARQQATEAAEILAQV-NH2 [SEQ ID NO: 25]
Completion: 11.6

Prompt: State its clearance for this substance: Ac-GSPSIVTS[αMeL]DVPT[Aib][αMeL]LQKILEQERAEKARQQAK([γGlu-AEEA-εLys-C20 diacid])EAAEILAQV-NH2 [SEQ ID NO: 1]
Completion: 18.1

Prompt: State its clearance for this substance: Ac-GSPSIVTS[αMeL]DVPT[Aib][αMeL]LQKLLEQERAEKARQQAK([γGlu-AEEA-εLys-C20 diacid])EAAEILAQV-NH2 [SEQ ID NO: 2]
Completion: 14.6

====

Assay: Pharmacokinetics in Cynomolgus monkeys, single subcutaneous or intravenous dose
Assay type: in vivo
Conditions: both sexes, cynomolgus monkey, plasma, sc, 183 nmol/kg, single subcutaneous dose 183 nmol/kg, individual animal, read-out: Tmax
*1 amine or outer side, *2 acyl side, *3 side chain or, on linkers, in order; H or OH if unused. Side-chain parts run from the residue outwards. [ ]: non-standard residue; d: D form. The star is where a group is joined. C20 diacid = O=C(O)CCCCCCCCCCCCCCCCCCC(=O)*; γGlu = O=C(O)[C@H](CCC(=O)[*:2])N[*:1]; εLys = N[C@@H](CCCCN[*:1])C(=O)[*:2]; pGlu = O=C1CC[C@@H](C(=O)O)N1; αMeL = CC(C)C[C@](C)(N)C(=O)O; AEEA = NCCOCCOCC(=O)O; Aib = CC(C)(N)C(=O)O
Reported Endpoint: Tmax (h)
Respond with the bare value in h.

Prompt: State its Tmax for this substance: [pGlu]GSPSGIVTS[αMeL]DVPT[Aib][αMeL]LQKILEQERAEKARQQAK([γGlu-AEEA-εLys-C20 diacid])EAAEILAQV-NH2 [SEQ ID NO: 22]
Completion: 72

====

Experiment: Pharmacokinetics in Sprague Dawley rats, single subcutaneous or intravenous dose (incl. 10, 30, 100 nmol/kg dose response)
Type: in vivo
Settings: male, Sprague Dawley, rat, plasma, sc, 187 nmol/kg, single subcutaneous dose 187 nmol/kg, mean, read-out: Tmax
*1 amine or outer side, *2 acyl side, *3 side chain or, on linkers, in order; H or OH if unused. Side-chain parts run from the residue outwards. [ ]: non-standard residue; d: D form. The star is where a group is joined. C20 diacid = O=C(O)CCCCCCCCCCCCCCCCCCC(=O)*; γGlu = O=C(O)[C@H](CCC(=O)[*:2])N[*:1]; εLys = N[C@@H](CCCCN[*:1])C(=O)[*:2]; αMeL = CC(C)C[C@](C)(N)C(=O)O; AEEA = NCCOCCOCC(=O)O; Aib = CC(C)(N)C(=O)O
Reported Endpoint: Tmax (h)
Respond with the bare value in h.

Prompt: State its Tmax for this substance: Ac-GSPSIVTS[αMeL]DVPT[Aib][αMeL]LQKILEQERAEKARQQAK([γGlu-AEEA-εLys-C20 diacid])EAAEILAQV-NH2 [SEQ ID NO: 1]
Completion: 24
